- Test system: HCC70
- assayComment: cell proliferation (confluence) relative to DMSO control; higher = less growth inhibition
- recordedConditions: 5 uM; 6 d
metric: cell proliferation (%)
Write the value in % as a bare number.

Below: 10 compounds and their reported cell proliferation.
CN(C)[C@H]1CN(C2CCc3cccc(F)c32)C[C@@H]1c1ccc(N2CCN(S(C)(=O)=O)CC2)cc1 (stereo not given in full) | 82.3
CC(C)Oc1ccc(-c2c[nH]cc2CN(C)CCN)cc1 | 94.5
COc1ccc(CCc2nc3cc(-c4c(C)noc4C)ccc3n2C[C@H](C)N2CCOCC2)cc1Cl | 99.8
CC(C)N(CCCNC(=O)Nc1ccc(C(C)(C)C)cc1)C[C@H]1O[C@@H](n2cc(Br)c3c(N)ncnc32)[C@H](O)[C@@H]1O | 93.6
CNCCN1CCC(OCc2ccccc2)CC1 | 88.5
CC[C@H](C)n1cc(C)c2c(C(=O)NCc3c(C)cc(C)[nH]c3=O)cc(-c3ccc(N4CCNCC4)nc3)cc21 | 82
CCn1cc(-c2cccc(C(F)(F)F)c2)c2sc(C(=N)NC3CCS(=O)(=O)CC3)cc2c1=O | 96.7
CCOC(=O)CCNc1cc(N2CCc3ccccc3CC2)nc(-c2ccccn2)n1 | 66
COc1cc2c(NC3CCN(C(C)C)CC3)nc(C3CCCCC3)nc2cc1OCCCN1CCCC1 | 98.6
COc1c(C)cc(NC(=O)c2nn(Cc3ccc(F)cc3)c3c2CN(C(=O)c2ccc[nH]2)C[C@]3(C)C(N)=O)cc1C | 99.4

QUERY: Entry `COc1cc(C#N)ccc1S(=O)(=O)Nc1ccc2c(c1)cc(C)c(=O)n2C` : reported cell proliferation = ?
RESULT: 95.8

QUERY: Entry `COc1ccccc1C(=O)Nc1cc2c(cc1N1CCCC1)n(C)c(=O)n2C` : reported cell proliferation = ?
RESULT: 96.7

QUERY: Entry `O=C(NCC(=O)N1CCCC1)Nc1ccc2cnccc2c1` : reported cell proliferation = ?
RESULT: 94.9

QUERY: Entry `COc1cc(-c2cn(C)c(=O)c3cnccc23)c(OC)cc1CN(C)C` : reported cell proliferation = ?
RESULT: 96.2

QUERY: Entry `CCCc1cc(C)[nH]c(=O)c1CNC(=O)c1cc(-c2ccnc(N3CCN(C)CC3)c2)cc2c1cnn2C(C)C` : reported cell proliferation = ?
RESULT: 97.6

----------
- System: HCC1143
- assayComment: cell proliferation (confluence) relative to DMSO control; higher = less growth inhibition
- recordedConditions: 5 uM; 6 d
// cell proliferation lookup, one value per entry
Write the value in % as a bare number.

Below: 2 compounds and their reported cell proliferation.
COc1ccc(CCc2nc3cc(-c4c(C)noc4C)ccc3n2C[C@H](C)N2CCOCC2)cc1Cl | 98.5
CCCc1cc(C)[nH]c(=O)c1CNC(=O)c1cc(-c2ccnc(N3CCN(C)CC3)c2)cc2c1cnn2C(C)C | 99.6

QUERY: Entry `CCCc1cc(C)n(C)c(=O)c1CN(C)C(=O)c1cc(-c2ccc(N3CCN(C(C)C)CC3)nc2)cc2c1cnn2C(C)C` : reported cell proliferation = ?
RESULT: 99.3

QUERY: Entry `CCOC(=O)CCNc1cc(N2CCc3ccccc3CC2)nc(-c2ccccn2)n1` : reported cell proliferation = ?
RESULT: 60.8

QUERY: Entry `CC[C@H](C)n1cc(C)c2c(C(=O)NCc3c(C)cc(C)[nH]c3=O)cc(-c3ccc(N4CCNCC4)nc3)cc21` : reported cell proliferation = ?
RESULT: 99.5

QUERY: Entry `COc1c(C)cc(NC(=O)c2nn(Cc3ccc(F)cc3)c3c2CN(C(=O)c2ccc[nH]2)C[C@]3(C)C(N)=O)cc1C` : reported cell proliferation = ?
RESULT: 97.7

Hey, just so you know, these numbers are from the supplement of paper PMC9337992.
